Values were extracted from ChEMBL document CHEMBL4340547.

system: MDR; experiment: Efflux ratio of apparent permeability in MDCK cells expressing MDR; type: ADME, cell-based, Canis lupus familiaris; details: dog, MDCK-MDR1
Measured Quantity: efflux ratio

Solved entries:
O=C(NCC1CCC(F)(F)CC1)c1c(Cl)ccc2nc(N3CCCC3)ccc12    1.2
O=C(NCC1CCC(F)(F)CC1)c1c(Cl)ccc2nc(N3CC[C@@H](F)C3)ccc12    0.69

[1] CN(C)[C@@H]1CCN(c2ccc3c(C(=O)NCC4CCC(F)(F)CC4)c(Cl)ccc3n2)C1
[2] O=C(NCC1CCC(F)(F)CC1)c1c(Cl)ccc2nc(N3CC[C@H](F)C3)ccc12
[3] C[C@@H]1CCC[C@@](O)(CNC(=O)c2c(Cl)ccc3nc(N4CCC(N(C)C)C4)ccc23)C1 (stereo not given in full)
Prompt line: Please list the entries, largest efflux ratio first. The labels, placed in the requested order, form the answer.
Response line: 3, 1, 2

----------
experiment: Intrinsic clearance in mouse liver microsomes; assay type: ADME, Microsome; details: read-out: CLH
Measured Quantity: microsomal CLint (µL/min/mg)

O=C(NCC1CCC(F)(F)CC1)c1c(Cl)ccc2nc(N3CC[C@@H](F)C3)ccc12    10
CN(C)[C@@H]1CCN(c2ccc3c(C(=O)NCC4CCC(F)(F)CC4)c(Cl)ccc3n2)C1    50
CN(C)[C@H]1CCN(c2ccc3c(C(=O)NCC4CCC(F)(F)CC4)c(Cl)ccc3n2)C1    24

[I] C[C@H]1CCC[C@@](O)(CNC(=O)c2c(Cl)ccc3nc(N4CC[C@@H](F)C4)ccc23)C1
[II] O=C(NCC1CCC(F)(F)CC1)c1c(Cl)ccc2nc(N3CCC(CCO)C3)ccc12 (stereo not drawn)
Prompt line: Look at I and II . Which one has the lower recorded microsomal CLint number? Record your answer as the label of the chosen record.
Response line: II

[a] O=C(NCC1CCC(F)(F)CC1)c1c(Cl)ccc2nc(N3CC[C@H](F)C3)ccc12
[b] O=C(NCC1(O)CCCC(F)(F)C1)c1c(Cl)ccc2nc(N3CC[C@H](F)C3)ccc12 (stereo partly drawn)
Prompt line: Look at a and b . Which one has the lower recorded microsomal CLint number? Record your answer as the label of the chosen record.
Response line: b

----------
assay: Protein binding in rat plasma; type: ADME, cell-free; details: read-out: PPB
Overview of recorded fraction unbound for various molecules

O=C(NCC1(O)CCCC(F)(F)C1)c1c(Cl)ccc2nc(N3CC[C@H](F)C3)ccc12 (some centres not stated)    0.03 to 0.1

Now, please, on to the next molecule.
Prompt line: Supply reported fraction unbound belonging to this molecule: `O=C(NCC1CCC(F)(F)CC1)c1c(Cl)ccc2nc(N3CC[C@H](F)C3)ccc12`
Response line: 0.03 to 0.1

----------
experiment: Protein binding in mouse plasma assessed as unbound fraction at 5 mg/kg, po; type: ADME, organism-based
Measured Quantity: fraction unbound

[a] O=C(NCC1(O)CCCC(F)(F)C1)c1c(Cl)ccc2nc(N3CC[C@H](F)C3)ccc12 (some centres not stated)
[b] O=C(NCC1CCC(F)(F)CC1)c1c(Cl)ccc2nc(N3CC[C@H](F)C3)ccc12
Prompt line: Look at a and b . Which one has the lower recorded fraction unbound number? Record your answer as the label of the chosen record.
Response line: b
(b: 0.03, a: 0.079)
